# Test system: HSV-1
# test protocol: HSV Antiviral (ELISA) assay
# Format: cell-based
# experimental conditions: HSV-1 in Vero cells
# Procedure: Vero cells (ATCC #CCL-81) are plated on 96-well tissue culture plates at 3.5×10^4 cells per 100 μl tissue culture DMEM (Dulbecco's modified Eagle media) supplemented with 2% fetal bovine serum (FBS) in each well. After overnight incubation @ 37° C. […] Antiviral activity (IC50) of the test compound is determined by comparing the flourescence obtained in absence of compound to that obtained in the presence of compound.
Recorded IC50 (ug/ml) HSV for the following compounds
observed property: IC50 (ug/ml) HSV

| compound | result |
| --- | --- |
| O=C(Nc1ccc(NC(=S)Nc2cc(N3CCCCC3)cc(C(F)(F)F)c2)cc1)c1csnn1 [Example 535] | >10 µg/mL |
| O=C(Nc1ccc(NC(=S)NCCc2ccc(Cl)cc2Cl)cc1)c1csnn1 [Example 707] | >10 µg/mL |
| O=C(Nc1ccc(NC(=S)NCCc2cccc(F)c2)cc1)c1csnn1 [Example 554] | >10 µg/mL |
| COc1cc(OC)c(NC(=S)Nc2ccc(NC(=O)c3cnccn3)cc2)cc1Cl [Example 144] | 7 µg/mL |
| O=C(Nc1ccc(CNC(=S)Nc2cc(Cl)cc(Cl)c2)cc1)c1csnn1 [Example 635] | >10 µg/mL |
| Cc1cccc(NC(=S)Nc2ccc(NC(=O)c3csnn3)cc2)c1 [Example 456] | >10 µg/mL |
| O=C(Nc1ccc(NC(=S)NCCc2ccc(Cl)c(Cl)c2)cc1)c1csnn1 [Example 645] | >10 µg/mL |
| O=C(Nc1ccc(NC(=S)NCCc2cccc(Cl)c2)cc1)c1ccco1 [Example 564] | >10 µg/mL |
| O=C(CN1CCCCC1)Nc1ccc(NC(=S)Nc2ccc(NC(=O)c3ccco3)cc2)cc1Cl [Example 365] | 10 µg/mL |

---

Recorded IC50 (ug/ml) VZV for the following compounds
# System: VZV strain Ellen
# test protocol: VZV Antiviral (ELISA) assay
# Assay type: cell-based
# experimental conditions: VZV strain Ellen in HFF cells
observed property: IC50 (ug/ml) VZV

| compound | result |
| --- | --- |
| COc1cc(OC)c(NC(=S)Nc2ccc(NC(=O)c3snnc3-c3ccoc3)cc2)cc1Cl | >10 µg/mL |
| O=C(Nc1ccc(NC(=S)Nc2cccc(CO)c2)cc1)c1ccco1 | >10 µg/mL |
| O=C(Nc1ccc(CNC(=S)Nc2ccc(Cl)c(Cl)c2)cc1)c1csnn1 | 4 µg/mL |
| O=C(Nc1ccc(NC(=S)NCCc2ccc(F)cc2)cc1)c1ccco1 | 8 µg/mL |
| CC(NC(=S)Nc1ccc(NC(=O)c2cscn2)cc1)c1ccc(F)cc1F (centres unmarked) | 1.04 µg/mL |
| CN(c1ccc(NC(=S)Nc2ccc(NC(=O)c3ccco3)cc2)cc1Cl)C1CCCCC1 | 4 µg/mL |
| O=C(CN1CCOCC1)Nc1ccc(NC(=S)Nc2ccc(NC(=O)c3ccco3)cc2)cc1Cl | >10 µg/mL |
| O=C(Nc1ccc(NC(=S)Nc2ccc(Cl)c(C(F)(F)F)c2)cc1)c1ccco1 | >10 µg/mL |
| Cc1ccc(NC(=S)Nc2ccc(NC(=O)c3ccco3)cc2)cc1Cl | >10 µg/mL |
| O=C(Nc1ccc(NC(=S)NCCc2ccc(Br)cc2)cc1)c1ccco1 | 10 µg/mL |
| NNC(=O)c1cccc(NC(=S)Nc2ccc(NC(=O)c3csnn3)cc2)c1 | >10 µg/mL |
| CC(NC(=S)Nc1ccc(NC(=O)c2cscn2)cc1)c1ccc(Br)cc1F (centres unmarked) | 0.77 µg/mL |
| C[C@H](NC(=S)Nc1ccc(NC(=O)c2csnn2)cc1)c1ccc(Cl)cc1 | >7.5 µg/mL |
| CN1CCC(N(C)c2ccc(NC(=S)Nc3ccc(NC(=O)c4ccccn4)cc3)cc2Cl)C1 (centres unmarked) | 7 µg/mL |
| CN(C)c1cccc(NC(=S)Nc2ccc(NC(=O)c3ccco3)cc2)c1 | >10 µg/mL |
| CC(NC(=S)Nc1ccc(NC(=O)c2cscn2)cc1)c1ccc(Cl)c(C(F)(F)F)c1 (centres unmarked) | 2.33 µg/mL |
| O=C(Nc1ccc(NC(=S)Nc2ccc(OC(F)(F)F)c(Br)c2)cc1)c1csnn1 | >10 µg/mL |
| CCN(CC)CC(=O)Nc1ccc(NC(=S)Nc2ccc(NC(=O)c3ccco3)cc2)cc1Cl | 5 µg/mL |
| COc1cc(OC)c(NC(=S)Nc2ccc(NC(=O)c3cccc4cccnc34)cc2)cc1Cl | >10 µg/mL |
| C[C@@H](NC(=S)Nc1ccc(NC(=O)c2cscn2)cc1)c1cc(C(F)(F)F)cc(C(F)(F)F)c1 | >7.5 µg/mL |
| O=C(CN1CCCCCC1)Nc1ccc(NC(=S)Nc2ccc(NC(=O)c3ccco3)cc2)cc1Cl | >10 µg/mL |
| O=C(Nc1ccc(NC(=S)NCCCc2ccccc2)cc1)c1csnn1 | >10 µg/mL |
| O=C(Nc1ccc(NC(=S)Nc2ccc(Cl)nc2)cc1)c1ccco1 | >10 µg/mL |
| O=C(Nc1ccc(NC(=S)NCCc2cccc(Cl)c2)cc1)c1ccco1 | 5 µg/mL |
| CC(C)c1cccc(NC(=S)Nc2ccc(NC(=O)c3csnn3)cc2)c1 | >10 µg/mL |
| CC(NC(=S)Nc1ccc(NC(=O)c2cscn2)cc1)c1ccc(Cl)cc1Cl (centres unmarked) | >7.5 µg/mL |
| NNC(=O)c1cccc(NC(=S)Nc2ccc(NC(=O)c3ccco3)cc2)c1 | >10 µg/mL |
| O=C(Nc1ccc(NC(=S)Nc2cc(Cl)ccc2Cl)cc1)c1csnn1 | >10 µg/mL |
| COc1cc(C)c(Cl)cc1NC(=S)Nc1ccc(NC(=O)c2ccco2)cc1 | 7 µg/mL |
| O=C(Nc1ccc(NC(=S)NCc2cccc(Cl)c2)cc1)c1ccco1 | >10 µg/mL |
| CC(NC(=S)Nc1ccc(NC(=O)c2cscn2)cc1)c1cccc(Br)c1 (centres unmarked) | 1.03 µg/mL |
| COc1cc(OC)c(NC(=S)Nc2ccc(NC(=O)c3ccoc3)cc2)cc1Cl | >10 µg/mL |
| O=C(Nc1ccc(NC(=S)NCc2ccccc2)cc1)c1ccco1 | >10 µg/mL |
| Cc1ccc(NC(=S)Nc2ccc(NC(=O)c3csnn3)cc2)cc1Cl | >10 µg/mL |
| COC(=O)c1cc(NC(=S)Nc2ccc(NC(=O)c3csnn3)cc2)cc(C(=O)OC)c1 | >10 µg/mL |
